target: T1, His-tagged, full-length PCSK9 (human, UniProt Q8NBP7 31-692); experiment: TR-FRET competition (PCSK9/EGF(A) assay); competitor EGF(A)-Fc;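 note: proximity signal from anti-His APC on PCSK9 paired with anti-Fc europium on the Fc ligand, read as normalized TR-FRET ratio across compound dilutions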
T1 construct: secreted PCSK9 is autocatalytically cleaved into prodomain and catalytic domain + CRD (from S153), which stay associated; also called His-PCSK9; proprotein convertase subtilisin/kexin type 9; not shown: His tag
T1 sequence (Q8NBP7 31-692 limits assumed): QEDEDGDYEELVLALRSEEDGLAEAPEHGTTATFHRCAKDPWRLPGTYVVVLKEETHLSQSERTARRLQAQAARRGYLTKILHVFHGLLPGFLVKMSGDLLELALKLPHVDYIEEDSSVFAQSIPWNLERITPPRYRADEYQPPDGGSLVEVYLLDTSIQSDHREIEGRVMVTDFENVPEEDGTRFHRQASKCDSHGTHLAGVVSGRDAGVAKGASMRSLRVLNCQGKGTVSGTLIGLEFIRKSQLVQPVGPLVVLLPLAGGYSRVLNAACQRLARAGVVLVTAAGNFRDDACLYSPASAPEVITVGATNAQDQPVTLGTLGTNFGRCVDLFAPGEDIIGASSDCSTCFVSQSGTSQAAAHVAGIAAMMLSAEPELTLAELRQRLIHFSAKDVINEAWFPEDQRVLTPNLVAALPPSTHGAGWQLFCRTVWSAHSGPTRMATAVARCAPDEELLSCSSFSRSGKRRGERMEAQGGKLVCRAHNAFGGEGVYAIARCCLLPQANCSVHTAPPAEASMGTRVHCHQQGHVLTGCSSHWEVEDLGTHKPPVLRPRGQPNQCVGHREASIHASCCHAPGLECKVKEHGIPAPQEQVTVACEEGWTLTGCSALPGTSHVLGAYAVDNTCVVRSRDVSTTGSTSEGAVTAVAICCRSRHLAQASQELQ
Bridge positions count the residues as written; N and C are the ends. Square brackets hold non-standard residues; d marks the D form. Primed or numbered codes have the meaning given here. Hyp′ = 3-hydroxyproline; Ahp = NCCCCCCC(=O)O
In this section we review reported IC50 values for a set of binders.

[[record]]
binder = "Ac-GCLWNLKRIGSQCWF-NH2 (disulfide 2-13; SMILES CC[C@H](C)[C@@H]1NC(=O)[C@H](CCCNC(=N)N)NC(=O)[C@H](CCCCN)NC(=O)[C@H](CC(C)C)NC(=O)[C@H](CC(N)=O)NC(=O)[C@H](Cc2c[nH]c3ccccc23)NC(=O)[C@H](CC(C)C)NC(=O)[C@@H](NC(=O)CNC(C)=O)CSSC[C@@H](C(=O)N[C@@H](Cc2c[nH]c3ccccc23)C(=O)N[C@@H](Cc2ccccc2)C(N)=O)NC(=O)[C@H](CCC(N)=O)NC(=O)[C@H](CO)NC(=O)CNC1=O) [Compound 87 (Ac-GCLWNLKRIGSQCWF-NH2)]"
result = "> 50 µM"

[[record]]
binder = "Ac-SGCRL[Hyp′]WNLQRIGLPC-NH2 (disulfide 3-16) [Compound 37 (Ac-SG-CRL(Hyp)WNLQRIGLPC-NH2)]"
result = "> 50 µM"

[[record]]
binder = "Ac-CRLPWNLQRI[Ahp]C-NH2 (disulfide 1-12; SMILES CC[C@H](C)[C@@H]1NC(=O)[C@H](CCCNC(=N)N)NC(=O)[C@H](CCC(N)=O)NC(=O)[C@H](CC(C)C)NC(=O)[C@H](CC(N)=O)NC(=O)[C@H](Cc2c[nH]c3ccccc23)NC(=O)[C@@H]2CCCN2C(=O)[C@H](CC(C)C)NC(=O)[C@H](CCCNC(=N)N)NC(=O)[C@@H](NC(C)=O)CSSC[C@@H](C(N)=O)NC(=O)CCCCCCNC1=O) [Compound 121 (Ac-CRLPWNLQRI-(Ahp)-C-NH2)]"
result = "> 50 µM"


Please fill in: IC50 reported for Ac-WCLWNLKRIGSQCEY-NH2 (disulfide 2-13; SMILES CC[C@H](C)[C@@H]1NC(=O)[C@H](CCCNC(=N)N)NC(=O)[C@H](CCCCN)NC(=O)[C@H](CC(C)C)NC(=O)[C@H](CC(N)=O)NC(=O)[C@H](Cc2c[nH]c3ccccc23)NC(=O)[C@H](CC(C)C)NC(=O)[C@@H](NC(=O)[C@H](Cc2c[nH]c3ccccc23)NC(C)=O)CSSC[C@@H](C(=O)N[C@@H](CCC(=O)O)C(=O)N[C@@H](Cc2ccc(O)cc2)C(N)=O)NC(=O)[C@H](CCC(N)=O)NC(=O)[C@H](CO)NC(=O)CNC1=O) [Compound 65 (Ac-WCLWNLKRIGSQCEY-NH2)] = > 50 µM
